assay.remarks: Effects on seizure induced by maximal electroshock (anti-MES action)
Assay type: in vivo, male ddY mice
condition.details: 30 mg/kg i.p., 1 hour before MES
measured.attribute: Inhibitory rate (anti-MES)

I'd like to know its Inhibitory rate (anti-MES). The molecule in question is CCCc1cc2c(s1)SCCc1cc(=O)n(-c3ccc(Cl)cc3)nc1-2 [Example 69]
80%

May I ask what Inhibitory rate (anti-MES) has been recorded for CCCc1cc2c(s1)S(=O)(=O)CCc1cc(=O)n(-c3ccc(Cl)cc3)nc1-2 [Example 71] ?
100%

Give its Inhibitory rate (anti-MES) value. Item: O=C1CC2CCSc3sccc3C2=NN1c1ccc(Cl)cc1 (stereo not shown) [Example 14]
100%

Entry CCc1cc2c(s1)[S+]([O-])CCc1cc(=O)n(-c3ccc(Cl)cc3)nc1-2 (stereo not shown) [Example 25] : reported Inhibitory rate (anti-MES) = ?
80%
